These data points were gathered from ChEMBL document CHEMBL5058577.

test system: Fibroblast; assay: Multiplex assay against human fibroblast; type: toxicity, cell-based; conditions: 24 h, 1 µM, compound concentration 1 uM, replicate 2
Catalogue of molecules with associated Population Mitotic Cells (%)
Lab book: enter the figure in %, no units written.

Below: 6 molecules and their reported Population Mitotic Cells (%).
molecule	measuredTarget	Population Mitotic Cells (%)
COc1c(C)cc(NC(=O)c2nn(Cc3ccc(F)cc3)c3c2CN(C(=O)c2ccc[nH]2)C[C@]3(C)C(N)=O)cc1C	Fibroblast	51
Cl.Clc1ccc2nsnc2c1NC1=NCCN1 [TIZANIDINE HYDROCHLORIDE]	Fibroblast	57
Cc1ccc(/C(=C\CN2CCCC2)c2ccccn2)cc1	Fibroblast	53
CCNC1(C(N)=O)CCN(c2ncnc3c2nc(-c2ccccc2Cl)n3-c2ccc(Cl)cc2)CC1	Fibroblast	65
CCCC(CCC)C(=O)O	Fibroblast	51
N[C@@]1(C(=O)O)CO[C@H]2[C@H](C(=O)O)[C@H]21	Fibroblast	52

Now consider a different molecule.
Consider the molecule CNC[C@H](O)c1ccc(O)c(O)c1 [EPINEPHRINE] and give its measured Population Mitotic Cells (%). 76

* * *

Catalogue of compounds with associated Population Membrane Permeable-Phenotype (%)
system: HEK-293T; assay: Multiplex assay against HEK293T; assay type: toxicity, cell-based; details: human, 24 h, 10 µM, compound concentration 10 uM, replicate 1
Lab book: enter the figure in %, no units written.

Below: 8 compounds and their reported Population Membrane Permeable-Phenotype (%).
In [3]: df
Out[3]:
                                   compound  numericreadout
0  CN1CCN2c3ncccc3Cc3ccccc3C2C1 (configuration not stated) [MIRTAZAPINE]               0
1   CCCn1c(=O)c2[nH]c(C3CCCC3)nc2n(CCC)c1=O               0
2  O=C(O)c1cc2ccccc2c(Cc2c(O)c(C(=O)O)cc3ccccc23)c1O [PAMOIC ACID]               0
3  C[C@H](NC(=O)c1c(C(F)F)nn(C)c1Oc1cccc(C(F)(F)F)c1)c1ccc(C(=O)O)cc1 [PALUPIPRANT]               0
4  O=C(O)Cc1ccccc1Nc1c(Cl)cccc1Cl [DICLOFENAC]               0
5  CC1(COc2ccc3c(c2)ncn3-c2ccc3cccc(N4CCC(N)CC4)c3n2)COC1 [CRENOLANIB]               0
6  O=S(=O)(c1ccccc1)c1cnc2c(N3CCNCC3)cccc2c1 [INTEPIRDINE]               0
7  O=C(NCC(=O)N1CC[C@H](N[C@H]2CC[C@@](O)(c3ccc(-c4ncccn4)cn3)CC2)C1)c1cccc(C(F)(F)F)c1 [PF-4136309]               1

Now consider a different compound.
Give the reported Population Membrane Permeable-Phenotype (%) for O=C(NCCO)c1cccc(-c2cc(Nc3ccc(OC(F)(F)F)cc3)ncn2)c1 (system: HEK-293T). 0

* * *

test system: Fibroblast; assay: Multiplex assay against human fibroblast; assay type: toxicity, cell-based; details: 12 h, 1 µM, compound concentration 1 uM, replicate 2
propertyLabel: Population Healthy Nuclei (%)
Lab book: enter the figure in %, no units written.

Below: 4 compounds and their reported Population Healthy Nuclei (%).
                                   compound                  propertylabel  numericreadout
0  CSCC[C@H](NC=O)C(=O)N[C@@H](CC(C)C)C(=O)N[C@@H](Cc1ccccc1)C(=O)O  Population Healthy Nuclei (%)              51
1  Cc1ccc(F)cc1C(=O)Nc1ccc(C(=O)N2Cc3cccn3Cc3ccccc32)c(Cl)c1  Population Healthy Nuclei (%)              47
2  CCCN1CCC[C@@H]2Cc3n[nH]cc3C[C@H]21.Cl [QUINPIROLE HYDROCHLORIDE]  Population Healthy Nuclei (%)              60
3  CC(C)(C)c1ccc(S(=O)(=O)Nc2ccc(Cl)cc2C(=O)c2cc[n+]([O-])cc2)cc1  Population Healthy Nuclei (%)              46

Consider the compound CCCC(CCC)C(=O)O and give its measured Population Healthy Nuclei (%). 47

Consider the compound CSc1ccccc1N1CCN(CCCCCC(=O)NC2CCCc3ccccc32)CC1.Cl (stereo unspecified) and give its measured Population Healthy Nuclei (%). 41
